molecular target: Caspase-7 (Homo sapiens); assay: procaspase-7 activators, primary screen, counter-screen for procaspase-3 activator project, biochemical, absorbance, HTS, human (AID 463210); settings: recombinant procaspase-7, Ac-DEVD-pNA absorbance 405 nm; at 8.5 µM; hits give high values; D23A/D198A/D206A triple mutant, cannot self-cleave; scale: DMSO 0, 5 µM enzyme 100
The campaign covered roughly 330,000 compounds. About 300 (0.091%) were called active. This is one part of a sample in which actives are shown more often than they occur.
property: activation (%)
Return type: number; implicit unit %.

Prompt: Supply activation value. Item: CN=C1SC(CC(=O)Nc2ccc(C(=O)O)cc2)C(=O)N1C (centres undefined)
Response: 1.33

Prompt: Supply activation value. Item: COc1ccc(OCc2cc(C(=O)N3CCCC3)no2)c2ccccc12
Response: -1.07

Prompt: Supply activation value. Item: C/C(=N/NC(=O)CSc1ccccn1)c1ccc([N+](=O)[O-])cc1
Response: 1.61

Prompt: Supply activation value. Item: CCn1c(O)c2ccc(C(=O)N=NC(=O)c3cccnc3)cc2c1O
Response: -2.1

Prompt: Supply activation value. Item: COc1ccc(S(=O)(=O)NCCOc2ccccc2)cc1F
Response: -0.02

Prompt: Supply activation value. Item: O=[N+]([O-])c1cc(Cl)cc(/C=N/NC(=S)Nc2cc(S(=O)(=O)N3CCOCC3)ccc2Cl)c1O
Response: -6.79

Prompt: Supply activation value. Item: Cc1nc(SCC(=O)N2CCc3ccccc3C2)c2c(C)c(C)sc2n1
Response: 18.1

Prompt: Supply activation value. Item: CNS(=O)(=O)c1cccc(C(=O)NC2CCCc3ccccc32)c1 (centres undefined)
Response: 38.5

Prompt: Supply activation value. Item: Cc1coc2c1c(C)cc1oc(=O)c(CC(=O)NCC(=O)N[C@H](C(=O)O)C(C)C)c(C)c12
Response: -1.78

Prompt: Supply activation value. Item: O=C(Nc1cccc2c1CCCC2)c1ccc(F)cc1
Response: 7.3

Prompt: Supply activation value. Item: COC(=O)c1ccc(N2CCOCC2)c(NC(=O)c2ccc(Br)o2)c1
Response: 1.06

Prompt: Supply activation value. Item: COc1ccc(Nc2ncc(C(=O)N3CCN(c4ccccc4OC)CC3)c3ccccc23)cc1
Response: 49.2

Prompt: Supply activation value. Item: COc1ccc(CSc2nc(N3CCOCC3)c3c(c2C#N)CC(C)(C)OC3)cc1
Response: -0.56

Prompt: Supply activation value. Item: COc1ccc(CN(C)Cc2nc3cc(OC)c(OC)cc3c(=O)[nH]2)c(OC)c1
Response: 4.38

Prompt: Supply activation value. Item: Cn1cnnc1Sc1ccc(S(C)(=O)=O)cc1[N+](=O)[O-]
Response: 6.34

Prompt: Supply activation value. Item: CC(C)(C)c1ccc(/C=C2\Oc3c(ccc(O)c3CN3CCN(CCO)CC3)C2=O)cc1
Response: -5.14

Prompt: Supply activation value. Item: CCCCn1c(-c2cccc(C)c2)nc2cc3[nH]c(=O)c(C(C)C)nc3cc21
Response: 11.3

Prompt: Supply activation value. Item: Cc1ccc2c(C)c(C(=O)N3CCN(c4ccncc4)CC3)oc2c1C
Response: 0

Prompt: Supply activation value. Item: CC(C(=O)NCC1CCCCC1)N(C)Cc1cccc(Cl)c1 (centres undefined)
Response: -2.02

###

Answer each item with its documented activation.
target: Caspase-7 (Homo sapiens) (UniProt P55210); experiment: procaspase-7 activators, primary screen, counter-screen for procaspase-3 activator project, biochemical, absorbance, HTS, human (AID 463210); settings: recombinant procaspase-7, Ac-DEVD-pNA absorbance 405 nm; at 8.5 µM; hits give high values; D23A/D198A/D206A triple mutant, cannot self-cleave; scale: DMSO 0, 5 µM enzyme 100
Sequence (P55210 whole entry D23A/D198A/D206A): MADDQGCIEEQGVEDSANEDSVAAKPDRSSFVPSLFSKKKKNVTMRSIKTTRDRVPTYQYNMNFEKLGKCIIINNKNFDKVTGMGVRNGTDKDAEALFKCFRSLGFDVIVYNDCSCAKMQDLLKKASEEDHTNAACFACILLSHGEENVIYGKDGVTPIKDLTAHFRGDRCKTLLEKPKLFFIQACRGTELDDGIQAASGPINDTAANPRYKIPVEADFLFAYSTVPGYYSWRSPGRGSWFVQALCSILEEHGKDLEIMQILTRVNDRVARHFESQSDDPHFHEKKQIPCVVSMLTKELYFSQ
The whole screen tested about 330,000 compounds, of which about 300 (0.091%) were called active. The entries come from a sample that favours actives as a whole.
Return type: number; implicit unit %.

Prompt: Supply activation value. Item: CC(OC(=O)c1ccc2noc(-c3ccccc3)c2c1)C(N)=O (stereo not drawn)
Response: -10.9

Prompt: Supply activation value. Item: CCCn1c(C)cc(/C=C(\C#N)C(=O)OCC(=O)N(C)c2c(N)n(Cc3ccccc3)c(=O)[nH]c2=O)c1C
Response: -1.74

Prompt: Supply activation value. Item: CC(C(=O)NCCc1ccc(S(N)(=O)=O)cc1)N1C(=O)CC(C)(C)Sc2ccccc21 (stereo not drawn)
Response: -4.12

###

target: Caspase-7 (Homo sapiens); assay: procaspase-7 activators, primary screen, counter-screen for procaspase-3 activator project, biochemical, absorbance, HTS, human (AID 463210); details: recombinant procaspase-7, Ac-DEVD-pNA absorbance 405 nm; at 8.5 µM; hits give high values; D23A/D198A/D206A triple mutant, cannot self-cleave; scale: DMSO 0, 5 µM enzyme 100
The campaign covered roughly 330,000 compounds. About 300 (0.091%) were called active. The list comes from a sample in which actives are over-represented; it also holds close analogues and randomly drawn compounds.
property: activation (%)
Return type: number; implicit unit %.

Prompt: Supply activation value. Item: COc1ccc(C(=O)N2CCCCC2C(=O)Nc2ccc(-n3nc(C)cc3C)cc2)o1 (stereo not drawn)
Response: 0.38

Prompt: Supply activation value. Item: CC(C)CN1CCNC(=O)C1CC(=O)N(C)CC1CCOCC1 (stereo not drawn)
Response: -1.75

Prompt: Supply activation value. Item: O=c1cc(CN2CCN(S(=O)(=O)/C=C/c3ccccc3)CC2)c2ccc(O)cc2o1
Response: 17.5

###

Answer each item with its documented activation.
molecular target: Caspase-7 (Homo sapiens); assay: procaspase-7 activators, primary screen, counter-screen for procaspase-3 activator project, biochemical, absorbance, HTS, human (AID 463210); conditions: recombinant procaspase-7, Ac-DEVD-pNA absorbance 405 nm; at 8.5 µM; hits give high values; D23A/D198A/D206A triple mutant, cannot self-cleave; scale: DMSO 0, 5 µM enzyme 100
The campaign covered roughly 330,000 compounds. About 300 (0.091%) were called active. This is one part of a sample in which actives are shown more often than they occur.
Return type: number; implicit unit %.

Prompt: Supply activation value. Item: O=c1c2ccccc2ccc2ccc(P(=O)(O)O)cc12
Response: 4.72

Prompt: Supply activation value. Item: O=S(=O)(Cc1noc(-c2ccc(OC(F)(F)F)cc2)n1)c1ccc(F)cc1
Response: 10.7

Prompt: Supply activation value. Item: COc1ccc(C2(C)ON(c3ccccc3C(F)(F)F)C2=O)cc1 (centres undefined)
Response: 2.15

Prompt: Supply activation value. Item: COC(=O)c1ccc(CN2CCN(CCCc3ccccc3)C(CCO)C2)cc1 (centres undefined)
Response: 2.25

Prompt: Supply activation value. Item: COC(=O)c1cccnc1NC(=S)NC(C)C
Response: 3.88

Prompt: Supply activation value. Item: CSCc1cc(N2CCOCC2)nc(SCc2ccc(Cl)cc2Cl)n1
Response: -1.6

Prompt: Supply activation value. Item: C=CCN(C(=O)Nc1ccc2oc(C)nc2c1)c1ccccc1
Response: -21.8

Prompt: Supply activation value. Item: O=C(CCn1nnc2ccccc2c1=O)N[C@@H](Cc1c[nH]c2ccccc12)C(=O)O
Response: 9.07

Prompt: Supply activation value. Item: COc1ccc(CN(C(=O)CSc2nnc(-c3ccc(OC)c(OC)c3)o2)c2ccc(F)cc2)cc1
Response: -3.3
